# stated conditions: 298.15 K; 101.33 kPa; Liquid; Falling or rolling sphere viscometry
Threshold-based label: viscosity under 100 mPa·s gives Met, viscosity not under 100 mPa·s gives Not met.

Quick check: does CCCCn1cc[n+](C)c1.O=S(=O)([O-])C(F)(F)F [1-butyl-3-methylimidazolium trifluoromethanesulfonate] have viscosity under 100 mPa·s?
Met

Quick check: does "CCCC[n+]1ccc(C)cc1.O=S(=O)([N-]S(=O)(=O)C(F)(F)F)C(F)(F)F" have viscosity under 100 mPa·s?
Met

====

# stated conditions: 298.15 K; 101.33 kPa; Liquid; Vibrating tube method
measured attribute: mass density (kg/m3)
Dear colleague, please return just the value in kg/m3, with no unit written.

Recorded mass density, per entry:
molecule	measured attribute	experimental value
CCCC[n+]1ccn(C)c1.O=S(=O)([N-]S(=O)(=O)C(F)(F)F)C(F)(F)F	mass density	1436.3
CCCC[n+]1ccc(C)cc1.O=S(=O)([N-]S(=O)(=O)C(F)(F)F)C(F)(F)F	mass density	1412.3
CCCCn1cc[n+](C)c1.F[B-](F)(F)F [1-butyl-3-methylimidazolium tetrafluoroborate]	mass density	1201.7

Lab note: CCCCn1cc[n+](C)c1.O=S(=O)([O-])C(F)(F)F [1-butyl-3-methylimidazolium trifluoromethanesulfonate] gave mass density of 1298.3

Lab note: CCCC[N+](C)(C)C.O=S(=O)([N-]S(=O)(=O)C(F)(F)F)C(F)(F)F [butyltrimethylammonium bis(trifluoromethylsulfonyl)imide] gave mass density of 1392.9

====

# stated conditions: 298.15 K; 101.33 kPa; Liquid; Concentric cylinders viscometry
In this section, each of the compounds is paired with its reported viscosity.
Dear colleague, please return just the value in mPa·s, with no unit written.

compound	viscosity, mPa·s
CCCCn1cc[n+](C)c1.O=S(=O)([O-])C(F)(F)F [1-butyl-3-methylimidazolium trifluoromethanesulfonate]	90.7

Attention now shifts to the item below.
Lab note: CCCCn1cc[n+](C)c1.F[B-](F)(F)F [1-butyl-3-methylimidazolium tetrafluoroborate] gave viscosity of 108

====

# stated conditions: 298.15 K; 101.33 kPa; Liquid; Falling or rolling sphere viscometry
Numbers after ± are expanded uncertainties.
In this section, each of the compounds is paired with its reported viscosity.

Recorded viscosity, per entry:
compound	viscosity
CCCCn1cc[n+](C)c1.F[B-](F)(F)F [1-butyl-3-methylimidazolium tetrafluoroborate]	111.9 ± 5.6 mPa·s
CCCC[N+](C)(C)C.O=S(=O)([N-]S(=O)(=O)C(F)(F)F)C(F)(F)F [butyltrimethylammonium bis(trifluoromethylsulfonyl)imide]	104 ± 5 mPa·s

Attention now shifts to the item below.
Lab note: "CCCC[n+]1ccn(C)c1.O=S(=O)([N-]S(=O)(=O)C(F)(F)F)C(F)(F)F" gave viscosity of 51.5 ± 2.1 mPa·s

====

# stated conditions: 298.15 K; 101.33 kPa; Liquid; Concentric cylinders viscometry
measured attribute: viscosity (mPa·s)
Dear colleague, please return just the value in mPa·s, with no unit written.

Lab note: CCCC[N+](C)(C)C.O=S(=O)([N-]S(=O)(=O)C(F)(F)F)C(F)(F)F [butyltrimethylammonium bis(trifluoromethylsulfonyl)imide] gave viscosity of 104.9

Lab note: "CCCC[n+]1ccc(C)cc1.O=S(=O)([N-]S(=O)(=O)C(F)(F)F)C(F)(F)F" gave viscosity of 55.7

Lab note: "CCCC[n+]1ccn(C)c1.O=S(=O)([N-]S(=O)(=O)C(F)(F)F)C(F)(F)F" gave viscosity of 50.9
